Each recorded value in this set is attributed to the supplement of paper PMC6555819.

Quick list: PBM binding z-score per entry.
System: PPARg DBDmut:RXRa IVT, anti-PPARg (DBD mutation: PPARg1 K132A/R137A, NR concentration 270 nM, RXRa partner concentration 90 nM)
Experiment: PBM binding z-score (relative to random genomic background probes); higher = stronger binding; sequences stand for … in GC…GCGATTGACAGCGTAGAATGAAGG

[
  {
    "primary.sequence": "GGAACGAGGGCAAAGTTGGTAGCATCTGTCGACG",
    "PBM binding z-score": 0.127
  },
  {
    "primary.sequence": "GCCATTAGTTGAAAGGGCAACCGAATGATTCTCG",
    "PBM binding z-score": 0.187
  },
  {
    "primary.sequence": "TAAATGAGGTTATAAGATCAGGGAACGTTGCAAA",
    "PBM binding z-score": 1.59
  },
  {
    "primary.sequence": "ATATGTAGGTTATCAGGTCATTCAGTTTGCGCAT",
    "PBM binding z-score": 1.79
  },
  {
    "primary.sequence": "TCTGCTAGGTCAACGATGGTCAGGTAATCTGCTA",
    "PBM binding z-score": 0.0564
  },
  {
    "primary.sequence": "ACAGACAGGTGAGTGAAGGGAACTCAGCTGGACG",
    "PBM binding z-score": -0.265
  },
  {
    "primary.sequence": "ATCCCTAGGTAACCAAGTTCAGTGAATGCCGAAC",
    "PBM binding z-score": -0.0937
  },
  {
    "primary.sequence": "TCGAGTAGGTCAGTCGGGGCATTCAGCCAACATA",
    "PBM binding z-score": 0.141
  },
  {
    "primary.sequence": "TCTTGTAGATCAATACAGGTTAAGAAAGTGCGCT",
    "PBM binding z-score": 0.912
  },
  {
    "primary.sequence": "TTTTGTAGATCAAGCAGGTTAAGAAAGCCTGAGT",
    "PBM binding z-score": 1.82
  },
  {
    "primary.sequence": "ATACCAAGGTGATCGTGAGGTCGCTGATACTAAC",
    "PBM binding z-score": 0.343
  },
  {
    "primary.sequence": "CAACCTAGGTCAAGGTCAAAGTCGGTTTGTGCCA",
    "PBM binding z-score": -0.338
  },
  {
    "primary.sequence": "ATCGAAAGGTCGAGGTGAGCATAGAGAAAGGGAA",
    "PBM binding z-score": 0.675
  },
  {
    "primary.sequence": "AGTCAAAGTTCAGGACGAGGTAACGCAAAGCACG",
    "PBM binding z-score": 0.41
  },
  {
    "primary.sequence": "TCAAATAGGTAAACAGGTGAAAGTCCGTAAGTTA",
    "PBM binding z-score": 0.833
  },
  {
    "primary.sequence": "GCTCGCAGGCCATTTGGGTCACTCAATGACGGGC",
    "PBM binding z-score": -1.82
  },
  {
    "primary.sequence": "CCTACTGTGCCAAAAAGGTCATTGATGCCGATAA",
    "PBM binding z-score": 0.316
  },
  {
    "primary.sequence": "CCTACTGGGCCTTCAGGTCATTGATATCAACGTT",
    "PBM binding z-score": 0.207
  },
  {
    "primary.sequence": "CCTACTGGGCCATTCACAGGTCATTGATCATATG",
    "PBM binding z-score": 0.164
  },
  {
    "primary.sequence": "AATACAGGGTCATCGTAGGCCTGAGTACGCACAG",
    "PBM binding z-score": 1.77
  },
  {
    "primary.sequence": "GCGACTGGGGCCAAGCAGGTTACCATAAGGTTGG",
    "PBM binding z-score": -0.943
  },
  {
    "primary.sequence": "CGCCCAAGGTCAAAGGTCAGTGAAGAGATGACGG",
    "PBM binding z-score": 0.645
  },
  {
    "primary.sequence": "ATCGAAAGGTCGTGAGATGAGTATACAGAAAGGC",
    "PBM binding z-score": 1.59
  },
  {
    "primary.sequence": "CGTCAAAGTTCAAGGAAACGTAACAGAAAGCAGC",
    "PBM binding z-score": 0.307
  },
  {
    "primary.sequence": "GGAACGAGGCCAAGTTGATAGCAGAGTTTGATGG",
    "PBM binding z-score": -1.22
  },
  {
    "primary.sequence": "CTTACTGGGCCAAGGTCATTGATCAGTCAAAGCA",
    "PBM binding z-score": 1.83
  },
  {
    "primary.sequence": "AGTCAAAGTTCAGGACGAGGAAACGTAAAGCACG",
    "PBM binding z-score": 0.63
  },
  {
    "primary.sequence": "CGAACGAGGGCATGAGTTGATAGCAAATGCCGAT",
    "PBM binding z-score": -0.334
  },
  {
    "primary.sequence": "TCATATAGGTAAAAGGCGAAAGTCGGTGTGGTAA",
    "PBM binding z-score": 0.28
  },
  {
    "primary.sequence": "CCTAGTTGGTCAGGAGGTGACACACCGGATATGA",
    "PBM binding z-score": 0.321
  },
  {
    "primary.sequence": "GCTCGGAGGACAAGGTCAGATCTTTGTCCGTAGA",
    "PBM binding z-score": -0.782
  },
  {
    "primary.sequence": "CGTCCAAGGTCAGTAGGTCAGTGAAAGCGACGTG",
    "PBM binding z-score": 0.33
  },
  {
    "primary.sequence": "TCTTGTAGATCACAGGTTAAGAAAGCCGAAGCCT",
    "PBM binding z-score": 0.9
  },
  {
    "primary.sequence": "CAAACTAGGTAAAGGTCAAAGTCGGTTTGTGCCA",
    "PBM binding z-score": 4.01
  },
  {
    "primary.sequence": "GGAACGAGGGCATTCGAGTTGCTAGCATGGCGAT",
    "PBM binding z-score": -0.0761
  },
  {
    "primary.sequence": "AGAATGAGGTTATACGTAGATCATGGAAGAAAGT",
    "PBM binding z-score": 1.46
  },
  {
    "primary.sequence": "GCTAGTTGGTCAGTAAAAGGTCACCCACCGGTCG",
    "PBM binding z-score": 0.204
  },
  {
    "primary.sequence": "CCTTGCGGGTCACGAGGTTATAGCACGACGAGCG",
    "PBM binding z-score": 3.45
  },
  {
    "primary.sequence": "TCTCTTAGTTGATTAGGGCAACCGAAACAGCGGA",
    "PBM binding z-score": 0.796
  },
  {
    "primary.sequence": "CCTACTGGGCCACGATAGGTCATTGATTCAGTGA",
    "PBM binding z-score": 0.89
  },
  {
    "primary.sequence": "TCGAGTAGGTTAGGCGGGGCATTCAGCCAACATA",
    "PBM binding z-score": 0.466
  },
  {
    "primary.sequence": "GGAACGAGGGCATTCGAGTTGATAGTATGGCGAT",
    "PBM binding z-score": -0.142
  },
  {
    "primary.sequence": "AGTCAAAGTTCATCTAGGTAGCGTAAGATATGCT",
    "PBM binding z-score": 1.02
  },
  {
    "primary.sequence": "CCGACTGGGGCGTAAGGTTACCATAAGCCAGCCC",
    "PBM binding z-score": -1.37
  },
  {
    "primary.sequence": "GCAGACAGGTGAAACGCAGATAACTCAGGGTGGC",
    "PBM binding z-score": 0.243
  },
  {
    "primary.sequence": "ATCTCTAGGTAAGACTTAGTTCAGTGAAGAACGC",
    "PBM binding z-score": 0.722
  },
  {
    "primary.sequence": "ATCGAAAGGTCGACGAGGTGAGTATACACCGTTT",
    "PBM binding z-score": 0.853
  },
  {
    "primary.sequence": "CCGACTGGGGCAGAAAGTTTACCATACCATCCGG",
    "PBM binding z-score": -1.52
  },
  {
    "primary.sequence": "GCTATTAGTTGAAAGTGCAACCGAATGATTCTCG",
    "PBM binding z-score": 0.449
  },
  {
    "primary.sequence": "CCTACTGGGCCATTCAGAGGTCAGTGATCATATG",
    "PBM binding z-score": -0.582
  },
  {
    "primary.sequence": "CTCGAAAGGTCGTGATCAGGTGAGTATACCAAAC",
    "PBM binding z-score": 1.37
  }
]
